Catalogue of growth readings, one per entry.
Test system: MCF7 breast
Experiment: NCI-60 one-dose screen, 48 h (100 = growth as untreated, 0 = no growth, -100 = all killed)
Settings: 10 µM unless noted
About 83,000 compounds went through this panel and 20% of them were active in at least one assay; those are over-represented in the sample as a whole.
Please state the figure in %; there is no need to write the unit.

Worked cases, growth given:
INSERT INTO results (compound, system_under_test, numeric_result) VALUES
  ('CCC1CCc2nc3sc(C(=O)Nc4ccccc4C)c(N)c3cc2C1 (stereo not given)', 'MCF7 breast', 15.2),
  ('Cc1c(C2=NNC(c3ccc4c(c3)OCO4)C2)[n+]([O-])c2ccccc2[n+]1[O-] (stereo not given)', 'MCF7 breast', 92.8),
  ('O=C(Cc1n[nH]c(=O)c2ccccc12)OCc1c(Cl)cccc1Cl', 'MCF7 breast', 69.9);

Continue with the compound presented below.
Given the compound CC1=C(C#N)C(C)(C)C(C#N)=C(C)N1 , write its reported growth. 96.7

---

System: SK-MEL-5 melanoma
Assay: NCI-60 one-dose screen, 48 h (100 = growth as untreated, 0 = no growth, -100 = all killed)
Conditions: 10 µM unless noted
The panel holds about 83,000 compounds, 20% with a hit somewhere; the sample as a whole holds those more often.
Lab note: class by growth, see lower segment (below 10%), middle segment (10% to below 90%), upper segment (90% or more)

Determine which band this compound sits in: CCN1C(=O)N(CC)C2Nn3c(s/c(=C\c4cccc(F)c4)c3=O)=NC21 (centres undefined) middle segment

Just checking, what class would you give CCN(Cc1ccc(CN(CC)C(=O)C(Br)Br)cc1)C(=O)C(Br)Br here? middle segment

Just checking, what class would you give CCNC(=O)CCCCC(=O)c1c(C)[nH]c(/C=C2\N=C(c3ccc[nH]3)C=C2OC)c1C here? middle segment

Textbook exercise: identify the category of the compound given here, CCN(CC)CCSc1c2ccc(Cl)cc2nc2ccc(OC)cc12 , according to its measured value. upper segment

Input CCN1C(=O)N(CC)C2Nn3c(s/c(=C4\C(=O)N(C5CCCC5)c5ccccc54)c3=O)=NC21 (centres undefined) ; output its category middle segment

Please let me know in which category the item CCSc1nnc(NC(=O)COc2ccc(Cl)cc2C)s1 belongs. upper segment

Place this compound in its band: COC(=O)c1ccc2nc(-c3cc4ccccc4n3C)n(CCCCOc3cc4c(cc3OC)C(=O)N3CCC[C@H]3C=N4)c2c1 lower segment

Band for CC(C)C[C@H](NC(=O)[C@H](Cc1ccccc1)n1ccc(N2CCCCC2)cc1=O)B(O)O ? lower segment

---

Tested on: SK-MEL-5 melanoma
Test: NCI-60 one-dose screen, 48 h (100 = growth as untreated, 0 = no growth, -100 = all killed)
Conditions: 10 µM unless noted
This is part of a sample that, as a whole, favours compounds with a hit. Of some 83,000 tested, about 20% had one in any assay.
Could you label it Satisfied if measured growth is 90% or higher, and Not satisfied otherwise?

Solved entries:
INSERT INTO assay_data (compound, system_under_test, group_label) VALUES
  ('O=C1c2ccccc2C(=O)c2c1oc1oc3c(c(=O)c21)c(=O)n(-c1ccccc1)c1ccccc31', 'SK-MEL-5 melanoma', 'Not satisfied'),
  ('COc1cc(CNC(=O)CSc2nc3ccccc3c(=O)n2Cc2cc(OC)c(OC)c(OC)c2)cc(OC)c1OC', 'SK-MEL-5 melanoma', 'Satisfied'),
  ('CCNC(=O)C1CCCN1C(=O)C(CCCN=C(N)N)NC(=O)C(CC(C)C)NC(=O)C(CC(C)C)NC(=O)C(Cc1ccc(O)cc1)NC(=O)C(CO)NC(=O)C(Cc1c[nH]c2ccccc12)NC(=O)C(Cc1cnc[nH]1)NC(=O)C1CCC(=O)N1 (configuration not stated)', 'SK-MEL-5 melanoma', 'Satisfied'),
  ('Cc1c(C2=NNC(c3ccc4c(c3)OCO4)C2)[n+]([O-])c2ccccc2[n+]1[O-] (configuration not stated)', 'SK-MEL-5 melanoma', 'Satisfied'),
  ('Cc1ccc(C2=NN(c3ccc(S(=O)(=O)NC(=O)NCc4ccccc4)cc3)C(c3ccc(N(C)C)cc3)C2)c(C)c1 (configuration not stated)', 'SK-MEL-5 melanoma', 'Not satisfied');

Turning now to a further compound:
hey, is growth for this one >= 90%? COc1cc(-c2csc(NC(=O)Nc3ccc(Cl)cc3Cl)n2)cc(OC)c1OC Not satisfied

---

System: MCF7 breast
Test: NCI-60 one-dose screen, 48 h (100 = growth as untreated, 0 = no growth, -100 = all killed)
Details: 10 µM unless noted
This is part of a sample that, as a whole, favours compounds with a hit. Of some 83,000 tested, about 20% had one in any assay.
result_type: growth (%)
Give just the numeric value; % need not be written.

Example entries and their recorded answers appear below.
INSERT INTO results (molecule, result_type, unit_tag, numeric_result) VALUES
  ('CN(C)c1nc(N)c(N=O)c(N)n1', 'growth', '%', 102),
  ('O=S(=O)(NCCCNc1cc(-c2cn(-c3ccccc3)nc2-c2cccc(O)c2)ccn1)c1ccc(Cl)cc1', 'growth', '%', 11),
  ('c1ccc2nc(-c3ccc4ccccc4n3)ccc2c1', 'growth', '%', 61.8),
  ('O=Nc1c(-c2c(O)[nH]c3ccc([N+](=O)[O-])cc23)[nH]c2ccc(O)cc12', 'growth', '%', 2.75);

Hello, please tell me recorded growth for this one: NC(=O)c1c(NC(=O)c2ccc(OCC3CCCO3)cc2)sc2c1CCCC2 (centres undefined) 101

Query growth for Cc1cccc(NC(=O)c2sc3nc4c(cc3c2N)CCCC4)c1 11.3

Answer with reported growth of CCOP(=O)(CCN1CCN(CCCCCOc2cc3c(cc2OC)C(=O)N2CCC[C@H]2C=N3)CC1)OCC 35.9

For the molecule CC(=O)N1Cc2ccccc2C(C)Cc2cc(Cl)ccc21 (centres undefined) , give its reported growth. 102

Provide growth value for the following molecule: COc1cccc(-c2nc3sccn3c2-c2ccnc(NCCNS(=O)(=O)c3ccccc3)n2)c1 53.3

---

Tested on: MDA-MB-435 melanoma
Assay: NCI-60 one-dose screen, 48 h
Settings: 10 µM unless noted
Compounds without any hit were thinned out: in the full panel of roughly 83,000, 20% have a hit. Activity calls are given as the source filed them. Rule for the calls: active = growth percent below 10; inactive = the rest.
API: response.call in active, inactive

Use the examples below as a reference point.
INSERT INTO measurements (molecule, group_label) VALUES
  ('C=C1C(=O)O[C@H]2[C@H]1CC/C(COC(=O)NCc1cc(OC)cc(OC)c1)=C\CC[C@@]1(C)O[C@@H]21', 'active'),
  ('COc1ccc(C(=O)/C=C/c2ccc(/C=C/c3cc(OC)c(OC)c(OC)c3)cc2)cc1', 'inactive'),
  ('COc1ccc(-n2cnc3c(sc4ncc(Cl)cc43)c2=O)cc1', 'inactive'),
  ('COc1ccc(C2=NN(c3ccc(S(N)(=O)=O)cc3)C(c3cn(-c4ccccc4)nc3-c3ccc(Cl)cc3)C2)cc1 (stereo not drawn)', 'inactive');

GET /call?item= CCCCn1c(=O)c(C2CNC(=O)c3ccccc3N2)cc2ccccc21 (stereo not drawn) returns the recorded outcome of this test. inactive

Call for entry CCC(=O)Oc1ccc2c(c1)CC[C@@H]1[C@@H]2CC[C@]2(C)C[C@H](OC(=O)CC)C[C@@H]12 : active

Hi team, can someone confirm the assay call for CC(C)(C)c1cn2cccc(C(=O)N3CCN(CC(=O)Nc4ccc(Cl)cc4C(=O)c4ccccc4Cl)CC3)c2n1 ? inactive

---

Test system: HT29 colon
Assay: NCI-60 one-dose screen, 48 h
Conditions: 10 µM unless noted
Compounds without any hit were thinned out: in the full panel of roughly 83,000, 20% have a hit. Calls of active or inactive are those of the source. How the source made its calls: active means growth percent below 10; inactive means the rest.
Pick one: active, inactive

The examples below pair each entry with its known result.
INSERT INTO assay_data (compound, group_label) VALUES
  ('COc1ccc2c(c1)NC(=O)CN2c1nc(NC2CC2)nc2ccccc12', 'active'),
  ('CCCCn1c(=O)c(C2CNC(=O)c3ccccc3N2)cc2ccccc21 (configuration not stated)', 'inactive'),
  ('CC[C@H](C)[C@H]1NC(=O)[C@@H](N[C@](C)(O)[C@@H](N)CC(C)C)[C@@H](C)OC(=O)[C@H](Cc2ccc(OC)cc2)N(C)C(=O)[C@@H]2CCCN2C(=O)[C@H](CC(C)C)NC(=O)[C@@H](C)C(=O)[C@H](C(C)C)OC(=O)C[C@@H]1O', 'active'),
  ('COC(=O)c1ccc2nc(-c3cc4ccccc4n3C)n(CCCCOc3cc4c(cc3OC)C(=O)N3CCC[C@H]3C=N4)c2c1', 'active'),
  ('CC(=O)OCC1OC(OCC2OC(OC(C)=O)C(OC(C)=O)C(OC(C)=O)C2OC(C)=O)C(OC(C)=O)C(OC(C)=O)C1OC(C)=O (configuration not stated)', 'inactive');

# fetch the recorded call for O=C(O)C(Cc1ccccc1)N1C(=O)/C(=C/C(Cl)=C/c2ccc([N+](=O)[O-])cc2)SC1=S (configuration not stated) here inactive

What classification did COc1ccc(Cn2c(SC)nc(=O)n(Cc3ccc(Cl)cc3)c2=O)cc1 end up with in this test? inactive

Record request — test call for COc1ccc(-c2nc3sccn3c2-c2ccnc(NCCCNS(=O)(=O)c3ccc4ccccc4c3)n2)cc1 inactive
